- target: recombinant M^Pro (Severe acute respiratory syndrome coronavirus 2, UniProt P0DTD1)
- assay.notes: SARS-CoV-2 Mpro screening and IC50 determination (QS1 fluorogenic substrate, Drag assay)
- Type: biochemical
- test.conditions: read-out: M^Pro (%inh)@10μM
Parameter inhibition at 10 µM: see the listing below.

> print(dat)
                                   compound                                    target  recorded.measurement
1  CCC[C@H](NC(=O)c1ccc(-c2ccc(OC)c(OC)c2)cc1)C(=O)N[C@H](C#N)C[C@@H]1CCNC1=O [12g]  recombinant M^Pro (Severe acute respiratory syndrome coronavirus 2, UniProt P0DTD1)                 > 95%
2  CCC[C@H](NC(=O)c1ccc(-c2cncc(Cl)c2)cc1)C(=O)N[C@H](C#N)C[C@@H]1CCNC1=O [12h]  recombinant M^Pro (Severe acute respiratory syndrome coronavirus 2, UniProt P0DTD1)                 > 95%

Please find the next compound below.
Per the records, this compound ( CC(C)C[C@@H](NC(=O)c1ccc(-c2ccc(F)nc2)cc1)C(=O)N[C@H](C#N)C[C@@H]1CCNC1=O [12c] ) has inhibition at 10 µM equal to > 95%
